From: the RNAGym collection of RNA variant scans (doi:10.7554/elife.80360)

Listed here: items and their measured self-cleavage.
B1: HDV Ribozyme (parent)
chain: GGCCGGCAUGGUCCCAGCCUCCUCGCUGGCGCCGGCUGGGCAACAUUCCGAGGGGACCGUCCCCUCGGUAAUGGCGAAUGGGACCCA

Variants of: B1
Assay: self-cleavage, relative activity (ratio to wild type); higher = more cleavage; co-transcriptional

| variant_name | self-cleavage |
| --- | --- |
| G1C G38U | 0.0396 |
| U20C C22A | 0.119 |
| G35U G74U | 0.182 |
| U27A G73U | 0.261 |
| G25C G74U | 0.108 |
| C30G A83G | 0 |
| U12C C61A | 0.511 |
| A43C G80U | 0.0825 |
| G38C C86G | 0.217 |
| G54C A83U | 0.631 |
| G68A A78C | 0.0733 |
| A77C C84A | 0.128 |
| C32U G52U | 0.963 |
| A56C A77G | 1.02 |
| G80A G81A | 0.185 |
| G39U A71U | 0.431 |
| C32U G80U | 0.145 |
| G11U C18A | 0.0674 |
| A16G G74C | 0.435 |
| G6C C14G | 0.111 |
| C44A A70U | 0.571 |
| C15U G68A | 0.759 |
